- TARGET DESC: human ether-à-go-go-related gene (hERG) potassium channel (human);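 further: peak tail current of the secondary pulse compared with the same well before compound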
- Sequence (Q12809 whole entry, looked up): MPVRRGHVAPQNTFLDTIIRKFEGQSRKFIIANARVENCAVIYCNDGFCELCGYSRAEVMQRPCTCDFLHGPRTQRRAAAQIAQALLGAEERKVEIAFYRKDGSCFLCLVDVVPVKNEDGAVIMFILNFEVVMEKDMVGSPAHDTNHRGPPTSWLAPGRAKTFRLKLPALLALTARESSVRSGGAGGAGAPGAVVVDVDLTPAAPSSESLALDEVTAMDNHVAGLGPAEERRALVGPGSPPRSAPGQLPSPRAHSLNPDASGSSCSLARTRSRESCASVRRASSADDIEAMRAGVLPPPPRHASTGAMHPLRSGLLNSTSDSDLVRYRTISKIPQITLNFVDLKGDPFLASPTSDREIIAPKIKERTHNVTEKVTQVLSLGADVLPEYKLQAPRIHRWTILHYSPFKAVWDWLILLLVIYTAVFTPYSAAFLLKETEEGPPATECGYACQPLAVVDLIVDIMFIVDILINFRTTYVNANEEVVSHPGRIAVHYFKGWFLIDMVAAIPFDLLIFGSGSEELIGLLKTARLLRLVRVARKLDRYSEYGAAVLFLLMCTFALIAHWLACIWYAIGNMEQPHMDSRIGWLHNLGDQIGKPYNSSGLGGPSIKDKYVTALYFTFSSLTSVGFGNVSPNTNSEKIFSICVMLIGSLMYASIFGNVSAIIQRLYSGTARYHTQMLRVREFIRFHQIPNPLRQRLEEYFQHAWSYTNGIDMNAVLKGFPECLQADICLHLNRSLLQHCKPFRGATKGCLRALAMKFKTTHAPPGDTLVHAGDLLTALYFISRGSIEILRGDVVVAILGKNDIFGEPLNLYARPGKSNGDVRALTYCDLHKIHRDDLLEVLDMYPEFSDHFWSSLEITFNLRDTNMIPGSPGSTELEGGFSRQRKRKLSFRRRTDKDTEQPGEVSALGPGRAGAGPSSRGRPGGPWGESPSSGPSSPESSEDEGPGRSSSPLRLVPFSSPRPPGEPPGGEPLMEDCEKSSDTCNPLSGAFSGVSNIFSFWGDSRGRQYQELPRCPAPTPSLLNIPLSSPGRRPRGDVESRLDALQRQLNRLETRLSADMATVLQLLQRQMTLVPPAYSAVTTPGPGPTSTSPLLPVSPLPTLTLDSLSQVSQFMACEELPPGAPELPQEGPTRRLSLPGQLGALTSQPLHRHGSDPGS
- EXPERIMENT: primary screen, population patch clamp on CHO cells stably expressing hERG; higher = less effect of the substance
Out of some 310,000 compounds screened, about 14,000 (4.5%) showed an effect of 50% or more. The effect is printed as a negative number. Shown is part of a subset that was picked to be rich in strong results.
OBSERVATION TYPE: hERG current change (%, negative = inhibition) at 10uM (%)
Give bare numbers, in %.

// solved cases for hERG current change (%, negative = inhibition) at 10uM follow
Form field: reported hERG current change (%, negative = inhibition) at 10uM of "O=c1c2ccccc2oc2cc(C#Cc3ccccn3)ccc12"
7.36

Give the measured hERG current change (%, negative = inhibition) at 10uM of "O=[N+]([O-])c1ccc(C[n+]2cccc3ccccc32)cc1.[Cl-]" .
-3.07

So what's the measured hERG current change (%, negative = inhibition) at 10uM for this one? "COc1cc2c(cc1OC)C1=C(C#N)CCC(=O)N1CC2"
5.55

Can you share its hERG current change (%, negative = inhibition) at 10uM? I mean this molecule: "O=[N+]([O-])c1ccc(C[n+]2cccc3ccc4cccnc4c32)cc1.[Br-]"
-62.6

Next:
Given the entry "CC(C)Cn1c(CN2C(=O)c3ccccc3C2=O)nc2ccccc2c1=O" , report its measured hERG current change (%, negative = inhibition) at 10uM.
16.7

====

- TARGET DESC: human ether-à-go-go-related gene (hERG) potassium channel (human);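 further: peak tail current of the secondary pulse compared with the same well before compound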
- EXPERIMENT: primary screen, population patch clamp on CHO cells stably expressing hERG; higher = less effect of the substance
Out of some 310,000 compounds screened, about 14,000 (4.5%) showed an effect of 50% or more. Effects have a minus sign here. The sample holds strong results, similar compounds and a random draw of the others, so the mix is not that of the screen.
OBSERVATION TYPE: hERG current change (%, negative = inhibition) at 10uM (%)
Numbers only, in %.

Take a look at these entries with their results.
Look up hERG current change (%, negative = inhibition) at 10uM: "C=CCNC(=O)c1cc(-c2ccncc2)nc2c(C)cc(C)cc12"
-43.5

Which hERG current change (%, negative = inhibition) at 10uM value is on record for "COc1cc(C(=O)N2CCC(N3CCCCCC3)CC2)cc(OC)c1OC.O=C(O)C(=O)O" ?
-2.57

# get_value(readout='hERG current change (%, negative = inhibition) at 10uM', item= "Cc1ccc(NC(=O)c2nsc(Cl)c2Cl)cc1" )
5.34

Requested read-out: hERG current change (%, negative = inhibition) at 10uM. Entry: "CCn1c(SCc2cc(=O)[nH]c3ccccc23)nnc1C1CC1"
8.48

I would be grateful if you could provide hERG current change (%, negative = inhibition) at 10uM for each of the following entries.
1. COc1ccc(-n2c(C)nc3cc(C(=O)N4CCOCC4)ccc32)cc1
2. C=CCn1c(SCC(=O)NC2CCCCC2)nnc1-c1ccc(OC)cc1
3. CCOC(=O)c1cc([N+](=O)[O-])sc1N
4. COc1cc(C(=O)N2CCC(n3cnc4cc(F)ccc43)CC2)cc(OC)c1OC
5. CCCCOC(=O)c1ccc(NC(=O)CSC2=Nc3ccccc3C3CC=NN23)cc1 (stereo not drawn)
6. COc1cc(OC)cc(C(=O)N2CCC(n3c(C)nc4cc(F)ccc43)CC2)c1

1: -14.1; 2: -12; 3: 2.1; 4: -56.9; 5: 15.4; 6: -59

// input: 6 molecules below; output: hERG current change (%, negative = inhibition) at 10uM for each
1. C=CCn1c(SCc2ccc(C(=O)OC)cc2)nnc1-c1sc(N)nc1C
2. COc1cc(/C=N/NC(=O)c2cc(-c3ccccc3)nc3ccccc23)ccc1O
3. CCOc1ccc(NC(=O)COc2nsnc2N2CCCCC2)cc1
4. CCOC(=O)c1c(C)oc(/N=C/c2ccccc2O)c1C#N
5. COc1cc(OC)cc(OC(=O)C2CCN(C(=O)c3ccc(F)cc3)CC2)c1
6. Cc1nc2cc(C(=O)O)ccc2n1C1CCCCC1

1: -8.5; 2: 6.54; 3: 21.6; 4: 7.61; 5: -7.47; 6: 7.52

// for each molecule below, give its hERG current change (%, negative = inhibition) at 10uM
1. COc1cc(C(=O)OCC(=O)NCc2ccc(F)cc2)ccc1OCC(C)C
2. O=C(O)CC1Sc2nnc(COc3ccc(Cl)cc3)n2N=C1c1ccccc1 (stereo not drawn)

1. 21.1
2. 21.2

Batch lookup, hERG current change (%, negative = inhibition) at 10uM per entry.
1. NC(=O)C(=O)N/N=C/c1c[nH]c2ccc(Br)cc12
2. COC(=O)c1sc(N)c(C(=O)OC)c1CSc1nnnn1C
3. C=CCn1c(SCc2c(C(=O)OC)sc(N)c2C(=O)OC)nnc1-c1ccc(Cl)cc1

12.7
-12.2
-58.1
